- EXPERIMENTAL PROTOCOL: Kinetic solubility of compound at pH 6.5 phosphate buffer by nephelometry
- Format: physicochemical
- MEASUREMENT SETUP: read-out: Kinetic_solubility
The reader will find reported solubility kinetic values listed item by item below.
PROPERTY MEASURED: solubility kinetic (µg/mL)

{"columns": ["MOLECULE", "PROPERTY MEASURED", "MODIFIER SIGN", "EXPERIMENTAL VALUE"],
 "data": [
  ["CC1(C)NC(=O)C(c2ccc(F)c(C(F)(F)F)c2)C1=O (centres undefined)", "solubility kinetic", ">", 100],
  ["CN(C)C(=O)c1cc(N2C(=O)NC(C)(C)C2=O)ccc1F", "solubility kinetic", ">", 100],
  ["CC1(C)NC(=O)N(Cc2ccc(F)c(C(F)(F)F)c2)C1=O", "solubility kinetic", ">", 100],
  ["O=C1CNC(=O)N1c1ccc(F)c(C(F)(F)F)c1", "solubility kinetic", ">", 100],
  ["CC1(C)OC(=O)N(c2ccc(F)c(C(F)(F)F)c2)C1=O", "solubility kinetic", "=", 3.1],
  ["CC1(C)NC(=O)N(c2ccnc3ccccc23)C1=O", "solubility kinetic", ">", 100],
  ["CC(C)(NC(=O)Nc1ccc(F)c(C(F)(F)F)c1)C(=O)O", "solubility kinetic", ">", 100],
  ["O=C1C2CCCN2C(=O)N1c1ccc(F)c(C(F)(F)F)c1 (centres undefined)", "solubility kinetic", "=", 25],
  ["CC1(C)CNC(=O)N(c2ccc(F)c(C(F)(F)F)c2)C1=O", "solubility kinetic", "=", 12.5],
  ["CC1(C)C(=O)N(c2ccc(F)c(C(F)(F)F)c2)C(=O)N1S(C)(=O)=O", "solubility kinetic", "=", 1.6],
  ["CC1(C)NC(=O)N(c2cccc(C(F)(F)F)c2)C1=O", "solubility kinetic", ">", 100],
  ["O=C1NC2(CCCCC2)C(=O)N1c1ccc(F)c(C(F)(F)F)c1", "solubility kinetic", "=", 3.1],
  ["CC1(C)C(=O)N(c2ccc(F)c(C(F)(F)F)c2)C(=O)N1CCc1ccccc1", "solubility kinetic", "=", 25],
  ["CC1(C)NC(=O)N(c2ccnc(C(F)(F)F)c2)C1=O", "solubility kinetic", ">", 100]
]}
